# polymerase ribozyme fitness (log ratio) annotations
B1: TPR 5TU (parent)
chain: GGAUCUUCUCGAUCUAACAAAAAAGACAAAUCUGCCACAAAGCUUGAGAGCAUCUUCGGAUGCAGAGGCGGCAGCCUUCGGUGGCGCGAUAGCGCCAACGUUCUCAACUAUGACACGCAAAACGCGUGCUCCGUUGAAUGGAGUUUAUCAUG

variants of: B1; experiment: polymerase ribozyme fitness, log enrichment relative to wild type (log ratio); higher = more active; in vitro selection for triplet polymerase activity
Fewer inactive variants are shown than the library holds.
Reply: number alone, nothing else.

Here are 5 variants together with their reported answers.
Task: Answer with the recorded polymerase ribozyme fitness (log ratio) of A20U U53A U55A C118G only.
Output: -3.98

Task: Supply recorded polymerase ribozyme fitness (log ratio) for A41C C57U C96U here.
Output: -0.458

Task: State, in one line, measured polymerase ribozyme fitness (log ratio) of A52G G71U C96U
Output: -4.1

Task: Find the measured polymerase ribozyme fitness (log ratio) of U55G A110G and report it.
Output: -2.87

Task: Tell me its polymerase ribozyme fitness (log ratio) given U53G C118U as the entry.
Output: -1.68

More entries:
Task: Report polymerase ribozyme fitness (log ratio), nothing else, for this variant: U6C C27U U145C
Output: -3.08

Task: For the variant C5G C103A G117A , give its reported polymerase ribozyme fitness (log ratio).
Output: -2.88

Task: Name the recorded polymerase ribozyme fitness (log ratio) of the item U56C G58A G84A U145G in your answer.
Output: 0.113

Task: Look up and state reported polymerase ribozyme fitness (log ratio) for U55A C69G
Output: -3.05

Task: Item C96G A150U : provide polymerase ribozyme fitness (log ratio)
Output: 0.451

Task: Output polymerase ribozyme fitness (log ratio) of C51U C131G
Output: -3.49

Task: Provide one value: measured polymerase ribozyme fitness (log ratio) of A47C U55A A60G
Output: -0.228

Task: Entry C54G U102C U144A needs its polymerase ribozyme fitness (log ratio) filled in; supply it.
Output: -3.91

Ref: the RNAGym collection of RNA variant scans (doi:10.1073/pnas.2313332121)
